Test system: IGROV-1
Test: SRB colorimetric assay of cell growth and viability, IGROV-1
Assay type: cell-based, human
Details: 48 hours exposure
# LC50 (concentration causing 50% net cell killing) per record follows
Endpoint: LC50 (concentration causing 50% net cell killing)

{"Compound": "C/C=C1\\NC(=O)[C@H](Cc2ccccc2)NC(=O)[C@@H](C(C)C)NC(=O)[C@@H]([C@@H](C)CC)NC(=O)[C@H](NC(=O)[C@H](NC(=O)[C@H](CCCCN)NC(=O)[C@H]2CCCN2C(=O)[C@H](NC(=O)[C@@H](NC(=O)[C@@H](NC(=O)[C@H](NC(=O)CC[C@@H](C)CC)C(C)C)[C@@H](C)O)C(C)C)C(C)C)[C@@H](C)CC)[C@@H](C)OC(=O)[C@H](C(C)C)NC1=O [Compound 30, [Lys^8, (4S)-MeHex^14]-KF]", "Measured on": "IGROV-1", "Result value": "1.09 µM"}
{"Compound": "C/C=C1\\NC(=O)[C@H](Cc2ccccc2)NC(=O)[C@@H](C(C)C)NC(=O)[C@@H]([C@@H](C)CC)NC(=O)[C@H](NC(=O)[C@H](NC(=O)[C@H](CCCN)NC(=O)[C@H]2CCCN2C(=O)[C@H](NC(=O)[C@@H](NC(=O)[C@@H](NC(=O)[C@H](NC(=O)CCCNC(=N)N)C(C)C)[C@@H](C)O)C(C)C)C(C)C)[C@@H](C)CC)[C@@H](C)OC(=O)[C@H](C(C)C)NC1=O [Compound 29, [4-GuBut^14]-KF]", "Measured on": "IGROV-1", "Result value": "6.7 µM"}
